target: human nociceptin receptor (ORL-1) (Homo sapiens, UniProt P41146); construct: expressed in transfected cells; test: Nociceptin receptor binding assay: binding of 125I-Tyr14-nociceptin to ORL-1 on HEK-293 cell membranes; conditions: competition with 0.5 nM 125I-Tyr14-nociceptin, HEK-293 cell membranes; 3 experiments in duplicate
Sequence (P41146 whole entry): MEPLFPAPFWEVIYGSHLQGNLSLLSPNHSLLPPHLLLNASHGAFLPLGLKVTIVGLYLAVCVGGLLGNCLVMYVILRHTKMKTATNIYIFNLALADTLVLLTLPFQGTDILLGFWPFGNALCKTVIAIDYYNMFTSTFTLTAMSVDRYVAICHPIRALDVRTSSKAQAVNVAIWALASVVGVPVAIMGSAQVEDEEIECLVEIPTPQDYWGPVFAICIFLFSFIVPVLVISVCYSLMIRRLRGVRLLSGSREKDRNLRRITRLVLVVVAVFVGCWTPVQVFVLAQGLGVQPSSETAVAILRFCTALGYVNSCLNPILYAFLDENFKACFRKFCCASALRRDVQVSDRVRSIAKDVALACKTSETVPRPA
No end group written: not given here.
VALUE TYPE: Ki (nM)
Numbers only, in nM.

Observe how each entry below is paired with its result.
FGGFTGARKSGRKLANQ [Peptide A11G]	3.2
FGAFTGARKSARKLANQ [Peptide G3A]	1.6
FGGFTGARKSAAKLANQ [Peptide R12A]	2.8
FGGFTGLRKSARKLANQ [Peptide A7L]	0.8
FGGFLGARKSARKLANQ [Peptide T5L]	2.2

Would you mind giving Ki for every sequence in the list below?
1. FGGFTGSRKSARKLANQ [Peptide A7S]
2. FGGFTGAKKSARKLANQ [Peptide R8K]

RESULT:
1: 1.5; 2: 32

###

target: ORL1 (Homo sapiens, UniProt P41146); experiment: Calcium flux (FLIPR) in carbachol-sensitized HEK-293 cells expressing ORL-1 receptor; assay type: cell-based; set-up: expressed in transfected cells; host or cells: HEK-293 cells expressing ORL-1 receptor; conditions: HEK-293 cells expressing ORL-1, pretreated with 100 μM carbachol; read-out: EC50 (calcium release)
pEC50: −log10 of the molar value. No end group written: not given here.
Classify as follows. Reported pEC50 greater than or equal to 8: true. Reported pEC50 below: false.

Example entries begin here.
FGGFTGAKKSAKKLANQ [R8K/R12K]	false
FGGFTGGRKSARKLANQ [Peptide A7G]	false
FGGFTGARKAARKLANQ [Peptide S10A]	false

QUERY: Answer whether pEC50 of FGGFTGARKSAKKLANQ [Peptide R12K] is greater than or equal to 8.
RESULT: true

QUERY: State whether the measured pEC50 reaches 8, counting equality as reaching it, for FGGFTGARKSSRKLANQ [Peptide A11S]
RESULT: true

QUERY: Quick check, pEC50 >= 8? FGGFTGARKSARKLAAQ [Peptide N16A]
RESULT: true

###

target: human nociceptin receptor (ORL-1) (Homo sapiens, UniProt P41146); construct: expressed in transfected cells; experiment: Nociceptin receptor binding assay: binding of 125I-Tyr14-nociceptin to ORL-1 on HEK-293 cell membranes; conditions: ratio of variant Ki to nociceptin Ki
No end group written: not given here.
Binarize Ki(x)/Ki(WT) at 2; below is true (1), at or above is false (0).

Please review the following examples before continuing.
FGGFTGARKSARKLGNQ [Peptide A15G]	true (1)
FGGFTGARKSARKAANQ [Peptide L14A]	true (1)
AGGFTGARKSARKLANQ [Peptide F1A]	false (0)

QUERY: Below 2 on Ki(x)/Ki(WT)? Entry FGGFTGARKSGRKLANQ [Peptide A11G]
RESULT: false (0)

QUERY: Take the sequence FGGATGARKSARKLANQ [Peptide F4A] and say whether its Ki(x)/Ki(WT) is less than 2.
RESULT: false (0)

###

Target: human nociceptin receptor (ORL-1) (Homo sapiens)
Construct: expressed in transfected cells
Experiment: Nociceptin receptor binding assay: binding of 125I-Tyr14-nociceptin to ORL-1 on HEK-293 cell membranes
Settings: competition with 0.5 nM 125I-Tyr14-nociceptin, HEK-293 cell membranes; 3 experiments in duplicate
Protocol: Binding of peptides to the ORL-1 Receptor. […] ORL-1 membranes were diluted in binding buffer such that 25 μL containing 1 microgram (μg) of membrane was added to each well of a standard 96-well microtiter in binding buffer. […] Twenty five microliters (25 μL) Microscint 20 (Packard) per well was added to solubilize bound radioactivity. The plates were then sealed and counted on a Packard Top Count to determine radioactivity bound to the membranes. […]
No end group written: not given here.
Lab note: anything with Ki below 2 nM is marked T; values at 2 nM or higher are marked F.

The examples below pair each entry with its known result.
FGGFTGARKSARALANQ [Peptide K13A]	T
FAGFTGARKSARKLANQ [Peptide G2A]	F
FGGFTGAKKSAKKLANQ [R8K/R12K]	F
FGGFTGARKSSRKLANQ [Peptide A11S]	T
FGGFTGARASARKLANQ [Peptide K9A]	T

Consider the record given below.
QUERY: is_below(Ki, 2 nM) for FGGFTGARKAARKLANQ [Peptide S10A] ?
RESULT: T

###

target: ORL1 (Homo sapiens, UniProt P41146); assay: Calcium flux (FLIPR) in carbachol-sensitized HEK-293 cells expressing ORL-1 receptor; assay type: cell-based; parameters: expressed in transfected cells; host or cells: HEK-293 cells expressing ORL-1 receptor; details: ratio of variant EC50 to nociceptin EC50
No end group written: not given here.
Consider the cut-off 6. If the recorded EC50(x)/EC50(WT) is strictly smaller, the label is Y; if not, the label is N.

Sample answers from the record:
FGGFTGARKSARKLAAQ [Peptide N16A]	Y
FGGFTAARKSARKLANQ [Peptide G6A]	N
FGAFTGARKSARKLANQ [Peptide G3A]	Y
FGGFTGARKSARKLANA [Peptide Q17A]	Y
FGGFTGAKKSARKLANQ [Peptide R8K]	N

QUERY: Dear reviewer, please state whether FGGFTGARASARKLANQ [Peptide K9A] has EC50(x)/EC50(WT) strictly beneath 6.
RESULT: Y

QUERY: Does the reported EC50(x)/EC50(WT) of FGGFTGARKSAKKLANQ [Peptide R12K] stay below 6?
RESULT: Y

QUERY: Is EC50(x)/EC50(WT) strictly under 6 for the entry FGGFSGARKSARKLANQ [Peptide T5S] ?
RESULT: N

QUERY: # check: EC50(x)/EC50(WT) < 6 for FGGFTGARKAARKLANQ [Peptide S10A]
RESULT: N

QUERY: Input FGGFTGGRKSARKLANQ [Peptide A7G] ; condition: EC50(x)/EC50(WT) strictly below 6. Does it hold?
RESULT: N

###

target: human nociceptin receptor (ORL-1) (Homo sapiens); construct: expressed in transfected cells; test: Nociceptin receptor binding assay: binding of 125I-Tyr14-nociceptin to ORL-1 on HEK-293 cell membranes; conditions: ratio of variant Ki to nociceptin Ki
No end group written: not given here.
VALUE TYPE: Ki(x)/Ki(WT)
Give bare numbers.

Here is how some sequences turned out for Ki(x)/Ki(WT).
FGGFTGAAKSARKLANQ [Peptide R8A]	69
FGGFTGARKSARKLAAQ [Peptide N16A]	0.4
FGGFTGARKSAKKLANQ [Peptide R12K]	1.1
FGGFLGARKSARKLANQ [Peptide T5L]	3.1
FGGFTGARKSAAKLANQ [Peptide R12A]	3.9
FGGFTGARKSARALANQ [Peptide K13A]	2.1

Batch request: Ki(x)/Ki(WT) per item, same order as input.
1. FAGFTGARKSARKLANQ [Peptide G2A]
2. FGGFTGSRKSARKLANQ [Peptide A7S]
3. FGGFTAARKSARKLANQ [Peptide G6A]
4. FGGFTGARKSLRKLANQ [Peptide A11L]
5. FGGFAGARKSARKLANQ [Peptide T5A]
6. FGGFTGARKSARKLANA [Peptide Q17A]

RESULT:
1. 265
2. 2.1
3. 2.1
4. 1.2
5. 8.9
6. 1.1

For every listed record, write down its Ki(x)/Ki(WT).
1. FGGFTGGRKSARKLANQ [Peptide A7G]
2. FGGFTGARKSSRKLANQ [Peptide A11S]
3. FGGFTGARASARKLANQ [Peptide K9A]
4. FGGFTGLRKSARKLANQ [Peptide A7L]
5. FGGFSGARKSARKLANQ [Peptide T5S]
6. FGAFTGARKSARKLANQ [Peptide G3A]
7. FGGFTGARKAARKLANQ [Peptide S10A]

RESULT:
11
1.7
2.1
1.1
2.0
2.2
1.2

# batch size: 2; output Ki(x)/Ki(WT) per entry
1. FGGFTGAKKSAKKLANQ [R8K/R12K]
2. FGGFTGAKKSARKLANQ [Peptide R8K]

RESULT:
[5.4, 45]
